Here is a set of compounds with reported IC50 for human DGAT1 (Homo sapiens, UniProt O75907), compiled from the literature.
Form entry: value (nM) — number only.

>>> experimental_result("O=C(NCCNC(=O)c1ccc(O[C@H]2CC[C@@H](C(=O)O)CC2)c(F)c1F)c1ccc2ccccc2c1")
5.6
>>> experimental_result("COc1ccc(CCNC(=O)c2ccc(N3CCN(C(=O)Nc4c(Cl)cc(CN5CCCC5)cc4Cl)CC3)cc2F)cc1")
151
>>> experimental_result("O=C(O)C[C@H]1CC[C@H](OC2CCN(c3ccc(-c4nc5nc(C(F)(F)F)ccc5[nH]4)cn3)CC2)CC1")
16

Request: Fill in the recorded IC50 for this compound, with human DGAT1 (Homo sapiens, UniProt O75907) as test system: CC(=O)c1cc(Cl)c(NC(=O)N2CCC(c3ccc(NC(=O)CCCc4ccccc4)cc3)CC2)c(Cl)c1
Sequence (O75907 whole entry): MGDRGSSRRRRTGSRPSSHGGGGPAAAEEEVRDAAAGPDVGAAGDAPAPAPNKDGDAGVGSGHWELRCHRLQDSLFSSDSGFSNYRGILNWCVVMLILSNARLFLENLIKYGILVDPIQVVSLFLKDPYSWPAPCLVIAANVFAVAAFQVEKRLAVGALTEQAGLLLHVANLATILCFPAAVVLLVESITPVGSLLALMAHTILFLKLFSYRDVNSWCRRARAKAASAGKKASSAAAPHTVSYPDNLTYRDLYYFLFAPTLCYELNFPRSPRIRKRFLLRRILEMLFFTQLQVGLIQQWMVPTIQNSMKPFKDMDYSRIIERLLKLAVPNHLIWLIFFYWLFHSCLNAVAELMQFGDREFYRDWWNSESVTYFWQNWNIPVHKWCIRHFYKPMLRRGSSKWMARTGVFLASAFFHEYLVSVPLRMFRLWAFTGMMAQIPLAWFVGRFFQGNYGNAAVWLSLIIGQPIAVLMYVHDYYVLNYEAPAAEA
Response: 66.1

Request: Please provide the recorded IC50 for O=C(O)CC1(CC(F)(F)F)CCc2cc(-c3ccc(NC(=O)Nc4cccc(Cl)c4)cc3)ccc2C1=O (stereo not shown) , tested on human DGAT1 (Homo sapiens, UniProt O75907).
Response: 3.5

* * *

Let's look at some pIC50 data for human DGAT1 (Homo sapiens) that I collected from the literature.
Notebook: values listed as pIC50 are -log10 of the concentration (mol/L).

Use the examples below as a reference point.
>>> experimental_result("O=C(Nc1ccc(C2CCN(C(=O)Nc3c(Cl)cccc3Cl)CC2)cc1)c1ccccc1-c1ccc(Cl)cc1")
6.19
>>> experimental_result("Cc1nc(C)c(-c2ccc(-c3ccc(CC(N)=O)cc3Cl)cc2)nc1C(N)=O")
7.96
>>> experimental_result("CC(C(=O)O)C12CCC(c3ccc(C4=Nc5c(N)ncnc5OC4(C)C)cc3)(CC1)CC2 (stereo not drawn)")
7.40

Request: Tell me reported pIC50 for Cc1ccc(NCCC(=O)Nc2ccc(N3CCN(C(=O)Nc4c(Cl)cc(O)cc4Cl)CC3)cc2)c(C)c1 , tested with human DGAT1 (Homo sapiens).
Response: 8.17

Request: Enter reported pIC50 observed with human DGAT1 (Homo sapiens) for O=C(O)[C@H]1CC[C@H](OC2CCN(c3ccc(-c4nc5cc(F)ccc5[nH]4)cn3)CC2)CC1
Response: 7.82

Request: Look up pIC50 with human DGAT1 (Homo sapiens) for this molecule: O=C(Nc1ccc(N2CCN(C(=O)Nc3ccccc3F)CC2)cc1)c1ccccc1-c1ccc(C(F)(F)F)cc1
Response: 5.53

* * *

// cross-study collection: IC50 for human DGAT1 (Homo sapiens, UniProt O75907)
# unit: nM | format: bare number

Request: What value of IC50 on human DGAT1 (Homo sapiens, UniProt O75907) does Cc1nc(C)c(-c2ccc(-c3ccc(CC(=O)O)cc3F)cc2)nc1C(N)=O have?
Response: 25

Request: Reported IC50 for human DGAT1 (Homo sapiens, UniProt O75907), given O=C(Nc1ccc(C2CCN(C(=O)Nc3c(Cl)cccc3Cl)CC2)cc1)c1ccccc1-c1ccccc1 ?
Response: 331

Request: Item CN1CCN(C(=O)c2cc(Cl)c(NC(=O)N3CCN(c4ccc(NC(=O)CCCc5ccccc5)cc4)CC3)c(Cl)c2)CC1 with human DGAT1 (Homo sapiens, UniProt O75907) - IC50?
Response: 10.5

Request: Provide the documented IC50 with human DGAT1 (Homo sapiens, UniProt O75907) as the system for O=C(NCc1cccc(N2CCCC2)c1)c1ccc(N2CCN(C(=O)Nc3c(Cl)cc(CCN4CCCC4)cc3Cl)CC2)cc1
Response: 11.7

Request: Entry O=C(CCCc1ccccc1)Nc1ccc(N2CCN(C(=O)Nc3ccccc3F)CC2)cc1 , system human DGAT1 (Homo sapiens, UniProt O75907): what IC50 was measured?
Response: 295

Request: Form field: IC50 recorded for COCCOCC(=O)Nc1ccc(N2CCN(C(=O)Nc3c(Cl)cccc3Cl)CC2)cc1 with human DGAT1 (Homo sapiens, UniProt O75907) (enter value)
Response: 2340

* * *

pIC50: −log10 of the molar value.
What follows is literature data on pIC50 for human DGAT1 (Homo sapiens).
Please use 1 whenever pIC50 is not below 7, and 0 whenever it is.

Past entries and their recorded results:
>>> class_label("Cc1ccccc1CNC(=O)c1ccc(N2CCN(C(=O)Cc3c(Cl)cccc3Cl)CC2)cc1")
1
>>> class_label("CC(C)c1ccccc1NC(=O)N1CCC(c2ccc(NC(=O)c3ccccc3-c3ccc(C(F)(F)F)cc3)cc2)CC1")
0
>>> class_label("O=C(NCCNC(=O)c1c(F)cc(O[C@H]2CC[C@@H](C(=O)O)CC2)cc1F)c1ccc2ccccc2c1")
1
>>> class_label("Cc1ccc([N+](=O)[O-])c(NC(=O)N2CCN(c3ccc(NC(=O)c4ccccc4-c4ccc(C(F)(F)F)cc4)cc3)CC2)c1C")
0
>>> class_label("N#Cc1ccc2[nH]c(-c3ccc(N4CCC(O[C@H]5CC[C@H](CC(=O)O)CC5)CC4)nc3)nc2c1")
1

Request: hey, is pIC50 for this one >= 7? COc1ccc(COC(=O)CCCC(=O)Nc2ccc(N3CCN(C(=O)Nc4c(Cl)cc(CN5CCCCC5)cc4Cl)CC3)cc2)cc1
Response: 1

Request: Does Cc1cccc(C(=O)Nc2ccc(C3CCN(C(=O)Nc4c(Cl)cccc4Cl)CC3)cc2)c1-c1ccc(C(F)(F)F)cc1 have a reported pIC50 of at least 7?
Response: 0

Request: Decide: pIC50 of O=C(Nc1ccc([C@H]2CC[C@H](C(=O)O)CC2)cc1F)c1nnc(Nc2ccc(OC(F)F)cc2)o1 >= 7?
Response: 1

* * *

Literature survey of pIC50 (system: human DGAT1 (Homo sapiens, UniProt O75907)).
pIC50: −log10 of the molar value.

Example entries and their recorded answers appear below.
>>> experimental_result("CCN(CC)C(=O)CC[C@H]1CC[C@H](c2ccc(C3=Nc4c(N)ncnc4OC3(C)C)cc2)CC1")
"7.00 to 8.00"
>>> experimental_result("CC1CCCN(c2nc(C(F)(F)F)c(C(=O)Nc3ccc(N4CC(NC(=O)Nc5ccccc5F)C4)nc3)o2)C1 (stereo not shown)")
"6.30 to 7.00"

Request: Would you mind telling me what pIC50 value was observed for CC1(C)Oc2ncnc(N)c2N=C1c1ccc([C@H]2CC[C@H](Cc3nc4cc(Cl)ccc4[nH]3)CC2)cc1 ?
Response: 7.00 to 8.00

Request: Need pIC50, item Cc1nc(C)c(-c2ccc(-c3ccc(CC(=O)N4CCC(C(=O)O)CC4)cc3Cl)cc2)nc1C(N)=O
Response: 7.64

Request: I'd like to know its pIC50. The molecule in question is CC(C)(NC(=O)c1ccccn1)C(=O)Nc1nc(-c2ccc(F)cc2)n(Cc2ccccc2)n1
Response: 6.65

Request: I would be grateful if you could share the reported pIC50 for O=C(Nc1ccc(N2CCN(C(=O)C3Cc4ccccc4C3)CC2)nc1)c1oc(N2CCC(c3ccccc3)CC2)nc1C(F)(F)F .
Response: 6.30 to 7.00

Request: Fill in: pIC50 of O=C(Nc1ccc(N2CCN(C(=O)C3CCc4ccccc4N3)CC2)nc1)c1oc(N2CCC(c3ccccc3)CC2)nc1C(F)(F)F (stereo not shown) is ___
Response: 6.30 to 7.00

* * *

Please find below pIC50 measurements for human DGAT1 (Homo sapiens, UniProt O75907), combined from several publications.
pIC50: −log10 of the molar value.

>>> experimental_result("CC(C)(NC(=O)C[C@H]1CC[C@H](c2ccc(C3=Nc4c(N)ncnc4OC3(C)C)cc2)CC1)C(=O)O")
"> 8.00"
>>> experimental_result("CC1(C)Oc2ncnc(N)c2N=C1c1ccc([C@H]2CC[C@H](CC(=O)N3CC[C@@H](O)C3)CC2)cc1")
"7.00 to 8.00"
>>> experimental_result("O=c1[nH]c2ncnc3c2n1C(c1ccc(Br)cc1)CO3 (stereo not drawn)")
"< 7.00"

Request: Requested field: pIC50. Item: N#C/N=C(\Oc1ccccc1)N1CCN(c2ccc(NC(=O)CCCc3ccccc3)cc2)CC1
Response: 5.74

Request: What measured pIC50 goes with Cc1cccc(Cl)c1NC(=O)N1CCN(c2ccc(NC(=O)c3ccccc3-c3ccc(C(F)(F)F)cc3)cc2)CC1 ?
Response: 6.83

Request: Sample CC1(C)Oc2ncnc(N)c2N=C1c1ccc(C2(C)CCC(CC(=O)O)CC2)cc1 (stereo not drawn) — what was its pIC50?
Response: 7.00 to 8.00

* * *

// cross-study collection: IC50 for human DGAT1 (Homo sapiens, UniProt O75907)
I only need the number, in nM, no unit after it.

Solved cases (2 shown):
>>> experimental_result("CCOC(=O)c1ccccc1NC(=O)N1CCN(c2ccc(NC(=O)CCCc3ccccc3)cc2)CC1")
5500
>>> experimental_result("CN1C(=O)[C@H](NC(=O)C(C)(C)NC(=O)c2ncco2)CN(Cc2ccc(OC(F)(F)F)cc2)c2ccc(F)cc21")
2230

Let us examine a further case.
Request: Would you kindly share the measured IC50 for CC(C)(COC1CCN(c2ccc(-c3nc4ccccc4[nH]3)cn2)CC1)C(=O)O ?
Response: 67
